# method-description: Pharmacokinetics in mouse
# Format: in vivo
# condition-info: blood, intravenous dose at 1 mg/kg, read-out: Vdss
observable: Vd (L/kg)
Numbers only, in L/kg.

Q: Dear colleague, I am looking for the recorded Vd of the following compound: `C=CC(=O)Nc1cccc(CNc2nc(Nc3ccc(N4CCN(C)CC4)cc3OC)ncc2Cl)c1`
A: 1.2

###

# tested-system: JAK3 (Homo sapiens, UniProt P52333)
# Sequence (P52333 1-1124): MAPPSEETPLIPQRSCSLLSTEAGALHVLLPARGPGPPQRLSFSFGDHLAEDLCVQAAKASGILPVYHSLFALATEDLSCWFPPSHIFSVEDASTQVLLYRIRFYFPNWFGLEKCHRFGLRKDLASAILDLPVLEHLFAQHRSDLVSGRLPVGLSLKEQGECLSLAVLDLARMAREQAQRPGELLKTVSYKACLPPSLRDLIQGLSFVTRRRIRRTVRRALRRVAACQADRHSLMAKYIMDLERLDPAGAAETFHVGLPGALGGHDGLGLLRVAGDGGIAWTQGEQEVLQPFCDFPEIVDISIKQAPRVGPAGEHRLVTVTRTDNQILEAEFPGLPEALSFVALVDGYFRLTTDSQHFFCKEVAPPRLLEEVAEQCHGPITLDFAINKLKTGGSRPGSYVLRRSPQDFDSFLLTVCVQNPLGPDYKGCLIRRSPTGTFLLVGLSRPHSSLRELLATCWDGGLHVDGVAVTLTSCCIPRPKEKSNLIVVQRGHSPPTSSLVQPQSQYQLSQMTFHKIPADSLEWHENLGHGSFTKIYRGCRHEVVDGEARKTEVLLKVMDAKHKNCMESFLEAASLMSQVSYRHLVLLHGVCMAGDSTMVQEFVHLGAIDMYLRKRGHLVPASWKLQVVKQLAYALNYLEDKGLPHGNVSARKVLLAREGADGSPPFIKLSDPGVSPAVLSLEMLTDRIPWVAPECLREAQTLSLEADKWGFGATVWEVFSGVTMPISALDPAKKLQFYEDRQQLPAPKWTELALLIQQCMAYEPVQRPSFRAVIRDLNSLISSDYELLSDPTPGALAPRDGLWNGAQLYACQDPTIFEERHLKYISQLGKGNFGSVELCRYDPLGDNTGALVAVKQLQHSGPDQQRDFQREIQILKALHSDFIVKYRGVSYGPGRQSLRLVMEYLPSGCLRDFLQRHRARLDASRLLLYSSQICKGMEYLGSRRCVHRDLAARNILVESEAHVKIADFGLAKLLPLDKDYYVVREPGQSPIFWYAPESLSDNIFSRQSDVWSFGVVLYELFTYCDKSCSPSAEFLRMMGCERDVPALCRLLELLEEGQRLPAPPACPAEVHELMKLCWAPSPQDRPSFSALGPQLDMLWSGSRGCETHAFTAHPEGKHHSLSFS
Field: pIC50. Provide a value for each of the molecules that follow.
Give bare numbers, as −log10 of the molar value.

Some molecules with known pIC50 results, for comparison:
molecule	numeric-readout
C=CC(=O)Nc1ccc(CNc2nc(Nc3ccc(N4CCN(C)CC4)c(F)c3)ncc2Cl)cc1 [Compound 16]	8.55
C=CC(=O)Nc1cccc(CN2CCc3cnc(Nc4cnn(C)c4)nc32)c1 [Compound 48]	5.09
C=CC(=O)Nc1cccc(CNc2cc(Nc3ccc(N4CCN(C)CC4)cc3OC)ncn2)c1 [Compound 25]	7.82

Q: What does the record list as pIC50 for C=CC(=O)Nc1ccc(CNc2nc(Nc3ccc(N4CCN(C)CC4)cc3)ncc2Cl)cc1 [Compound 15] ?
A: 9.16
